# protocol.summary: Blood clearance in C57BL/6 mouse at 0.6 mg/kg, iv and 2 mg/kg, po
# Assay type: ADME, organism-based
# conditions: whole blood
measured.metric: clearance (L/h/kg)
Number in L/h/kg, nothing else.

[Q] Quick one: clearance for COc1cc(F)c(C(C)C)cc1-c1ccc(C(F)(F)F)cc1CN1C(=O)O[C@H](c2cc(C(F)(F)F)cc(C(F)(F)F)c2)[C@@H]1C ?
[A] 0.66

###

# assay.system: Cholesteryl ester transfer protein (Homo sapiens)
# Sequence (whole entry): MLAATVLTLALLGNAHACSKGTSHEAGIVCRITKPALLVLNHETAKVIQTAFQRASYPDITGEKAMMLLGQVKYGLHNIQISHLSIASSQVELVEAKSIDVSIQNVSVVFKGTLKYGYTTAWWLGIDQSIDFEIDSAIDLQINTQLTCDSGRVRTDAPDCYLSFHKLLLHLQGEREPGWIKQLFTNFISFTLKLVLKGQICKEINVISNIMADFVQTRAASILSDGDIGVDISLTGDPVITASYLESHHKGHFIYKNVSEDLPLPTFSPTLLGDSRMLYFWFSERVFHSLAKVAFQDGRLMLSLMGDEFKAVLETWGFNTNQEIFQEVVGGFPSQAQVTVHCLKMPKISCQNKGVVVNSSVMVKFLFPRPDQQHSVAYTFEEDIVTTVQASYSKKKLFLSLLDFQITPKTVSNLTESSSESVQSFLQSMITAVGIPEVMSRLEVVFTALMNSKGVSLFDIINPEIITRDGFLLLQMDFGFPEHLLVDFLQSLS
# protocol.summary: Inhibition of human recombinant CETP-mediated cholesteryl ester transfer activity at 100 uM after 1 hr by fluorescent cholesteryl esters transfer assay relative to control
measured.metric: inhibition (%)
Number in %, nothing else.

Below, each entry is followed by its recorded inhibition result.
COc1ccc(C(C)C)cc1-c1ccc(C(F)(F)F)cc1CN1C[C@@H](c2cc(C(F)(F)F)cc(C(F)(F)F)c2)OC1=O = 93
COc1ccc(C(C)C)cc1-c1ccc(C(F)(F)F)cc1CN1C(=O)O[C@@H](c2cc(C(F)(F)F)cc(C(F)(F)F)c2)[C@H]1C = 8
COc1cc(F)c(C(C)C)cc1-c1ccc(C(F)(F)F)cc1CN1C(=O)O[C@@H](c2cc(C(F)(F)F)cc(C(F)(F)F)c2)C1(C)C = 21

[Q] Quick one: inhibition for CC[C@H]1[C@@H](c2cc(C(F)(F)F)cc(C(F)(F)F)c2)OC(=O)N1Cc1cc(C(F)(F)F)ccc1-c1cc(C(C)C)ccc1OC (racemic) ?
[A] 87
